Reference source for all entries: paper PMC6684685

Test: La(III) exchange competition assay, 50-fold excess La
Format: physicochemical
Conditions: 50-fold excess La^III, ambient temperature, 5 h
This section presents molecules with their documented % Stable values.
readoutType: % Stable (%)

molecule="O=C([O-])c1cccc(CN(CCN(Cc2cccc(C(=O)[O-])n2)CP(=O)([O-])[O-])CP(=O)([O-])[O-])n1.[225Ac+3] [[^225Ac(phospa)]^3−]" endpointresult=0
molecule="O=C([O-])CN1CCN(CC(=O)[O-])CCN(CC(=O)[O-])CCN(CC(=O)[O-])CC1.[225Ac+3] [[^225Ac(DOTA)]^−, reference compound]" endpointresult=94.5
molecule="O=C([O-])CN(CCN(CC(=O)[O-])Cc1cccc(C(=O)[O-])n1)Cc1cccc(C(=O)[O-])n1.[225Ac+3] [[^225Ac(octapa)]^−]" endpointresult=42.7
molecule="O=C([O-])CN(Cc1cccc(C(=O)[O-])n1)C1CCCCC1N(CC(=O)[O-])Cc1cccc(C(=O)[O-])n1.[225Ac+3] (stereo not shown) [[^225Ac(CHXoctapa)]^−]" endpointresult=81.8
